Test system: HOP-92 NSCLC
Experiment: NCI-60 one-dose screen, 48 h
Conditions: 10 µM unless noted
The panel holds about 83,000 compounds, 20% with a hit somewhere; the sample as a whole holds those more often. Calls of active or inactive are those of the source. How the source made its calls: active means growth percent below 10; inactive means the rest.
Please reply with one of these outcomes: active, inactive

[[record]]
chemical_string = "O=C(Nc1cc(C(F)(F)F)cc(C(F)(F)F)c1)Nc1ccc2oc(=O)ccc2c1"
tested_system = "HOP-92 NSCLC"
assigned_label = "active"

[[record]]
chemical_string = "CN1CCN(Cc2ccc(NC(=O)c3cncc(C#Cc4cnc5ccc(NCCO)nn45)c3)cc2C(F)(F)F)CC1"
tested_system = "HOP-92 NSCLC"
assigned_label = "active"


Now consider a different compound.
Task: Lab log entry: COc1ccc(/C=N/N=C(/c2ccccc2)c2ccc3nc(-c4ccc(Cl)cc4)[nH]c3c2)cc1 — outcome as called in the assay?
Output: inactive

====

System: UO-31 renal
Assay: NCI-60 one-dose screen, 48 h
Conditions: 10 µM unless noted
Compounds without any hit were thinned out: in the full panel of roughly 83,000, 20% have a hit. The source made the active and inactive calls. How the source made its calls: active means growth percent below 10; inactive means the rest.
Please reply with one of these outcomes: t (active), f (inactive)

Completed entries (count: 6):
[[record]]
chemical_string = "NC1=NC2(CCCC2)N(c2ccc(S(=O)(=O)Nc3nccs3)cc2)C(N)=N1"
assigned_label = "f"

[[record]]
chemical_string = "CNC(=O)Nc1ccc(Nc2cc(-c3ccc(-n4cccn4)cc3)[nH]n2)c(C)c1"
assigned_label = "f"

[[record]]
chemical_string = "COc1ccc2sc(NC(=O)CCCCCCNC(=O)C(O)(O)C(F)(F)F)nc2c1"
assigned_label = "t"

[[record]]
chemical_string = "O=S(=O)(Oc1ccc(-c2cn3ccoc3n2)cc1)C1CCCCC1"
assigned_label = "f"

[[record]]
chemical_string = "O=C(CSc1nc2ccccc2c(=O)n1-c1ccc(Cl)cc1)N/N=C/c1ccc(Oc2ccc(Cl)cc2)cc1"
assigned_label = "f"

[[record]]
chemical_string = "CCOC(=O)c1c(NCC(=O)Nc2cccc([N+](=O)[O-])c2)sc(C(C)=O)c1C"
assigned_label = "t"


Task: Lab log entry: Cc1ccc(Nc2nc(SC(C)C)nc(-c3ccccc3)c2C#N)cc1 — outcome as called in the assay?
Output: f

====

Tested on: MALME-3M melanoma
Experiment: NCI-60 one-dose screen, 48 h
Conditions: 10 µM unless noted
This is part of a sample that, as a whole, favours compounds with a hit. Of some 83,000 tested, about 20% had one in any assay. The source made the active and inactive calls. The calls were made as follows: active = growth percent below 10; inactive = the rest.
Please reply with one of these outcomes: t for active, f for inactive

[[record]]
compound = "C#CCN(C)CCCOc1ccc(NC(=O)CCCCCCC(=O)NO)cc1Cl"
tested_system = "MALME-3M melanoma"
assigned_label = "f"

[[record]]
compound = "CC1=C(C)C(=O)C(Nc2ccc(C)cc2)=C(Br)C1=O"
tested_system = "MALME-3M melanoma"
assigned_label = "f"

[[record]]
compound = "C=C(C)[C@@H]1CC[C@]2(C(=O)NC3CCCCC3)CC[C@]3(C)[C@H](CC[C@@H]4[C@@]5(C)CC[C@H](N)C(C)(C)[C@@H]5CC[C@]43C)[C@@H]12"
tested_system = "MALME-3M melanoma"
assigned_label = "f"


Task: Lab log entry: Cc1ncn(-c2ccc(/C=N/Nc3ccnc4cc(Cl)ccc34)cc2)c1C — outcome as called in the assay?
Output: t
